# tested_on: HLA-A*31:01
# assay_explanation: IEDB peptide-MHC binding, purified MHC/direct/fluorescence; filed as Kd, often an IC50 or EC50 that approximates it; bounds were set here for any values at or beyond the usual limits of such assays
# details: source organism: Clostridium botulinum
assay_endpoint: Kd (nM)
Respond numerically; units are nM and should not be typed.

HLA-A*31:01 Kd of RVYINVVVK is 231

###

# tested_on: HLA-A*02:03
# assay_explanation: IEDB peptide-MHC binding, purified MHC/competitive/radioactivity; filed as Kd, often an IC50 or EC50 that approximates it; bounds were set here for any values at or beyond the usual limits of such assays
# details: source organism: Vaccinia virus WR
pKd: −log10 of the molar value.
Mark false (0) for pKd values under 6, and true (1) for everything at or above.

API: above_or_equal(metric=pKd, cutoff=6) for item NITTLLNET
false (0)
